biological target: Bifunctional 3'-5' exonuclease/ATP-dependent helicase WRN (Homo sapiens, UniProt Q14191); assay: Inhibition of recombinant WRN (unknown origin) helicase activity expressed in baculovirus expression system using forked duplex DNA as substrate after 15 mins by polyacrylamide gel electrophoresis
Sequence (Q14191 whole entry): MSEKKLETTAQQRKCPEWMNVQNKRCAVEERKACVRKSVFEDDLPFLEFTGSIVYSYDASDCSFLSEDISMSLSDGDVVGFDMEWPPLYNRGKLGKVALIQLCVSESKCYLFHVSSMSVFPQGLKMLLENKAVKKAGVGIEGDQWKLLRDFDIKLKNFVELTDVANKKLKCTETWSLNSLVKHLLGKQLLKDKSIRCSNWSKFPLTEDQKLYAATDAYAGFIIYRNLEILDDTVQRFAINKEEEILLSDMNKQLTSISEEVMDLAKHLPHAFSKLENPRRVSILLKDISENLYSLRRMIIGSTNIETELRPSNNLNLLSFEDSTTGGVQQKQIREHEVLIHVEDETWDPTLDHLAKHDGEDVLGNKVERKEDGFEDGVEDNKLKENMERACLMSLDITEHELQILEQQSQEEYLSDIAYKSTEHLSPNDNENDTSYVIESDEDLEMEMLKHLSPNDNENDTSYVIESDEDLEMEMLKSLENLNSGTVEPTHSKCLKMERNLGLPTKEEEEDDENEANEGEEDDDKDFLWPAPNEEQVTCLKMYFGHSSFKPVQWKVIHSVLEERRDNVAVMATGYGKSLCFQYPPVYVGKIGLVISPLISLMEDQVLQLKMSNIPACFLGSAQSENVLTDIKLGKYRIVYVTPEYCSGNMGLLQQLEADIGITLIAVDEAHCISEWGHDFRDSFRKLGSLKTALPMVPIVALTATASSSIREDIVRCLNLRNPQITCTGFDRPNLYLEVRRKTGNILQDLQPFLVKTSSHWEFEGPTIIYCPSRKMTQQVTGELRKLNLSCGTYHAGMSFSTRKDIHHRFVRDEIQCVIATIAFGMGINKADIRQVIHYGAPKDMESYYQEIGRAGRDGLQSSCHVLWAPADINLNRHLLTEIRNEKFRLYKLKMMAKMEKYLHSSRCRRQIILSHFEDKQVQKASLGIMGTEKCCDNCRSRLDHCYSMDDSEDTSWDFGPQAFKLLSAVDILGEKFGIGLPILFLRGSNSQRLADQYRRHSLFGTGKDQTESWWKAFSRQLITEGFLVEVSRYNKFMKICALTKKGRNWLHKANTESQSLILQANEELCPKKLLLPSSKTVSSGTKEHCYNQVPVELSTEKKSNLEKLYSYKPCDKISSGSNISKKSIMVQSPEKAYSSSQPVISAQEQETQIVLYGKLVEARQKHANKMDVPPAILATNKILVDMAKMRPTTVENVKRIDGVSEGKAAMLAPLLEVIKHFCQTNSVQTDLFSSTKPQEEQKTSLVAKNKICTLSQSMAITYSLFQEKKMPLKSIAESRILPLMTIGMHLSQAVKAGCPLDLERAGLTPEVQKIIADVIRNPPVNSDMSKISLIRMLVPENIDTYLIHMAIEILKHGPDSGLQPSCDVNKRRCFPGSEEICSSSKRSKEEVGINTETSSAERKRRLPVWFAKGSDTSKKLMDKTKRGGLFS
pIC50: −log10 of the molar value.
assay-readout: pIC50

smiles_representation=CCC(=O)OCN1C(=O)C=CC1=O readout_value=5.52
